- STUDY_TARGET: IDH1 R132H (Homo sapiens, UniProt O75874, R132H)
- Sequence (O75874 whole entry R132H): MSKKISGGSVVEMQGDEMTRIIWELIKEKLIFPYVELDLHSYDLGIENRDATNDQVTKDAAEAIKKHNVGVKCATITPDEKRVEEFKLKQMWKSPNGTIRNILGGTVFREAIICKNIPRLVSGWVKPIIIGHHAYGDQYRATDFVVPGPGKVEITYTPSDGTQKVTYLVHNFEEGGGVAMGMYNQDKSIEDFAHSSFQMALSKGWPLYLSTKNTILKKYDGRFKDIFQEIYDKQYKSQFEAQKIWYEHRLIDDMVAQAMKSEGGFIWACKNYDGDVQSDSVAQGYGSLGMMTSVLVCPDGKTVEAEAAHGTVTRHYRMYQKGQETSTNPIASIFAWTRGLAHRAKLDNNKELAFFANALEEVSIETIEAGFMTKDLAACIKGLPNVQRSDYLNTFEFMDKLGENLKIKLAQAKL
- ASSAY_NAME: IDH1 R132H enzymatic assay (NADPH depletion coupled to diaphorase/resazurin)
- Assay type: biochemical
- MEASUREMENT_CONTEXT: IDH1 R132H enzymatic inhibition, IC50 class
MEASURED_PROPERTY: IC50

Would you please look over these solved cases?
CCc1cccc(CC)c1-n1c(C)c(C(=O)N2CCCC(N)C2)cc(-c2nc(-c3ccc(Cl)cc3)cs2)c1=O (stereo not drawn)    1000 to 5000 nM
CCOc1ccc(Cl)cc1-n1c(C=C(C)C)c(C(=O)N2CCNCC2)cc(-c2nc(-c3ccc(C(F)(F)F)nc3)cs2)c1=O    < 300 nM
CCc1cccc(CC)c1-n1c(C=C(C)C)c(C(=O)N2CCNCC2)cc(-c2nn(-c3ccc(Cl)cc3)cc2C)c1=O    < 300 nM
CCc1cccc(CC)c1-n1c(C)c(C(=O)N2CCCCC2C(=O)O)cc(-c2nc(-c3ccc(Cl)cc3)cs2)c1=O (stereo not drawn)    1000 to 5000 nM
CCc1cccc(CC)c1-n1c(CC(C)C)c(C(=O)N2CCNCC2)cc(-c2ccn(-c3ccc(Cl)cc3)n2)c1=O    < 300 nM

[Q] State its IC50 on IDH1 R132H (Homo sapiens, UniProt O75874, R132H): CCc1cccc(CC)c1-n1c(CC(C)C)c(C(=O)N2CCNCC2C(=O)OC)cc(-c2nc(-c3ccc(Cl)cc3)cs2)c1=O (stereo not drawn)
[A] 1000 to 5000 nM

[Q] State its IC50 on IDH1 R132H (Homo sapiens, UniProt O75874, R132H): `CCc1cccc(CC)c1-n1c(C=C(C)C)c(C(=O)N2CC3(CCNC3)C2)cc(-c2nc(-c3ccc(Cl)cc3)cs2)c1=O`
[A] 300 to 1000 nM

Numbers sourced from patent US10703746B2.
